Measured ELISA reading values are reported for all entries that follow.
# STUDY_SYSTEM: T1, mouse KDR (Flk-1)/Fc (Cat. #443-KD/CF, R&D Systems, Inc.) (mouse, UniProt P35918 20-762)
# T1 construct: Bought reagent; also called mouse VEGFR2; KDR mouse ortholog; not shown: Fc of the bought fusion protein
# T1 sequence (P35918 20-762 limits assumed): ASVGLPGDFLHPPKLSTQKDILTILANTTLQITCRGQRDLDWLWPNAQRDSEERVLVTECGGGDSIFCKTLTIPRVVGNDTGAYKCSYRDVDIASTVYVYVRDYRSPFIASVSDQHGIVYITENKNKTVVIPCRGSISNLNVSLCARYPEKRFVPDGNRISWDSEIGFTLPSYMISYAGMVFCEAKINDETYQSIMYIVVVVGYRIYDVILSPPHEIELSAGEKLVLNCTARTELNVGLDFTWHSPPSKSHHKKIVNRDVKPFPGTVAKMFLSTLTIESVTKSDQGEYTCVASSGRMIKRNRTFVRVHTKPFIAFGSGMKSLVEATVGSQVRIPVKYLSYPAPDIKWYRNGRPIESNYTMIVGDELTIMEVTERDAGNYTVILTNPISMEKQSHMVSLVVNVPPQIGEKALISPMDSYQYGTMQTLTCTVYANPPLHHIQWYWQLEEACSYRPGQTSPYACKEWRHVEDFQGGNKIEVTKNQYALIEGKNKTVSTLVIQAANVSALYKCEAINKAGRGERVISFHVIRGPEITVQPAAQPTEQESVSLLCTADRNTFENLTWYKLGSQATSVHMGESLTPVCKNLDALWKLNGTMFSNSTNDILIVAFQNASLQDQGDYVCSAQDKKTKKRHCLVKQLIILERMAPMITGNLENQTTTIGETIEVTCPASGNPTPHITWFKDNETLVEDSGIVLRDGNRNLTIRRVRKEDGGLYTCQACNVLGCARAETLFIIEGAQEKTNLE
# EXPERIMENT: ELISA, Flk-1 coat 5 ug/mL, antibody 0.01 ug/mL
The answer should be a number; do not append a unit.

BINDER: 32F4 (antibody, V domains shown, Fully human monoclonal antibody from a XenoMouse hybridoma (IgG2 or IgG4 strain), purified) VH: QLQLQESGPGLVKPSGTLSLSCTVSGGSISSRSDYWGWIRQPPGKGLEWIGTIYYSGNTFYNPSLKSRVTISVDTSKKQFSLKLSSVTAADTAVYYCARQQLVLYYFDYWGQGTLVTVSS VL: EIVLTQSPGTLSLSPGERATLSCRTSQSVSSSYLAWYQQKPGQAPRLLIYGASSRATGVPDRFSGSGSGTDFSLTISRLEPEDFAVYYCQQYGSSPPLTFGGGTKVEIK
MEASURED_METRIC: ELISA reading
VALUE_OBSERVED: 0.802

BINDER: 32G7 (antibody, V domains shown, Fully human monoclonal antibody from a XenoMouse hybridoma (IgG2 or IgG4 strain), purified) VH: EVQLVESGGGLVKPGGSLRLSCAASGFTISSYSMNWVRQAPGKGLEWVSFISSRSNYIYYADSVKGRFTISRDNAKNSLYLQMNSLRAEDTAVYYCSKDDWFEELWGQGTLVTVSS VL: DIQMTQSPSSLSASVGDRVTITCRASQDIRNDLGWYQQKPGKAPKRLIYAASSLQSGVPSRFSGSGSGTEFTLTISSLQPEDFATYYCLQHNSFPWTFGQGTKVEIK
MEASURED_METRIC: ELISA reading
VALUE_OBSERVED: 0.988

Field: next binder
Input line: Consider the binder shown here: 29H3 (antibody, V domains shown, Fully human monoclonal antibody from a XenoMouse hybridoma (IgG2 or IgG4 strain), purified) VH: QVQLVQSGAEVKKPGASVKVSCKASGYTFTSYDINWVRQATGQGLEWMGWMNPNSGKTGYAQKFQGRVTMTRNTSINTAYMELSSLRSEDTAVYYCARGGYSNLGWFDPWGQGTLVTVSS VL: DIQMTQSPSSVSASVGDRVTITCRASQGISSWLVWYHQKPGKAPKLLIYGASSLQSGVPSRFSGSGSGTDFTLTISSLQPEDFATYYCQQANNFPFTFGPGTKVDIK What is its recorded ELISA reading?
Output line: 1.14
